Molecular target: T1, human CD19 (human, UniProt P15391 20-556)
T1 construct: whole, on cells; also called Cluster of Differentiation 19; hPro1
T1 sequence (looked up): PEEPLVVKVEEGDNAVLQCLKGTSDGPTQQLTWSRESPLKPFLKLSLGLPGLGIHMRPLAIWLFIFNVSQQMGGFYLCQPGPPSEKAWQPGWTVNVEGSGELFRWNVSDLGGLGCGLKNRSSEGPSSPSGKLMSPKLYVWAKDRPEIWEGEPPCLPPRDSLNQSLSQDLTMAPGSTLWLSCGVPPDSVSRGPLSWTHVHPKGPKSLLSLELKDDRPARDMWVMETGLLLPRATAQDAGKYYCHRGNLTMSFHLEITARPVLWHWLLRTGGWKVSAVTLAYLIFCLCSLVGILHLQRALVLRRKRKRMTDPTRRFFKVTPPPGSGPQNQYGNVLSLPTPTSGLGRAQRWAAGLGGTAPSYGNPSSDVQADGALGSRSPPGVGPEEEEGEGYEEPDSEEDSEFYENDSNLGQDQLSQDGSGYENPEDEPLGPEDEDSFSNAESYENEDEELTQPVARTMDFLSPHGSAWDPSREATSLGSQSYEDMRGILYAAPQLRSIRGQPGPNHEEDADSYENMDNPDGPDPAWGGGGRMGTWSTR
Test: flow cytometry on CD19 transfected CHO-K1 cells, Scatchard analysis
Experimental: The CD19 transfected CHO-K1 cells or Ramos cells were plated in a 96-well plates (BD) at a density of 5×10⁴ cells/well. Antibodies to be tested were serially diluted in the staining buffer (1×PBS/1% BSA) and incubated with cells at 4° C. for 1 hr. The affinity of selected candidate antibodies were tested on CD19 transfected CHO-K1 cell by flow cytometry.
Please respond with reported Kd for every item in the list.
I'd appreciate it if you wrote the number followed by its unit.

QUERY: Any idea what its Kd is? The binder is WBP7011-4.34.11 (antibody, V domains shown) VH: EVQLQQSGPELVKPGASVKMSCKASGYTFTNYVIHWVKQKPGQGLEWIGYFNPYNDGTEYNEKFKAKATLTSDKSSSTAYMELSSLTSEDSAVYYCAKGPYYYGSSPFDYWGQGTTLTVSS VL: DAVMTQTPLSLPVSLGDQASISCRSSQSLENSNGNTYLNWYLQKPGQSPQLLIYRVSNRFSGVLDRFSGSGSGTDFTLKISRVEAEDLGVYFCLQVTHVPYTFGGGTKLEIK
RESULT: 0.181 nM

QUERY: Item under review: WBP7011_4.194.10 (antibody, V domains shown, also called W7011-4.194.10) VH: EVQLQQSGPELVKPGASVKMSCKASGYTFTSYVMHWVKQKPGQGLEWIGYINPYNDGTKYNEKFKGKATLTSDKSSSTAYMELSSLTSEDSAVYYCARGPYYYGSSPFDYWGQGTTLTVSS VL: DAVMTQTPLSLPVSLGDQASISCRSSQTLENSNGNTYLNWYLQKPGQSPQLLIYRVSNRFSGVLDRFSGSGSGTDFTLKISRVETEDLGVYFCLQVTHVPYTFGGGTKLEIK . Reported Kd?
RESULT: 0.42 nM
